assay: Plasma concentrations in guinea pig DK-PGD2 leukocyte influx study; assay type: in vivo; details: Hartley, 18.5 hours after oral 10 mg/kg, read-out: concentration of Compound 1 in plasma
testReadout: concentration at 18.5 h (nM)
Give the quantity in nM, number only.

Ask: concentration at 18.5 h lookup needed for COc1ccc(CC(=O)O)cc1Oc1ccc(NC(=O)C(C)(C)C)cc1CSC(C)(C)C , thanks.
Reply: 4

###

test: Regional dosing study in rat (pharmacokinetics); type: in vivo; details: male, Sprague-Dawley, in vivo, 10 mg/kg, duodenum
Structures can show the parent of a compound that is named as a salt.
testReadout: AUC (ng·h/mL)
Give the quantity in ng·h/mL, number only.

Ask: AUC lookup needed for COc1ccc(CC(=O)O)cc1Oc1ccc(NC(=O)C(C)(C)C)cc1CSC(C)(C)C [Compound 2, sodium salt] , thanks.
Reply: 5010

###

assay: Regional dosing study in rat (pharmacokinetics); format: in vivo; conditions: male, Sprague-Dawley, in vivo, 10 mg/kg, ileum
Where a name gives a salt, the structure may show the parent alone.
testReadout: Cmax (ng/mL)
Give the quantity in ng/mL, number only.

Ask: Cmax lookup needed for COc1ccc(CC(=O)O)cc1Oc1ccc(NC(=O)C(C)(C)C)cc1CSC(C)(C)C [Compound 2, sodium salt] , thanks.
Reply: 610

###

target: UniProt:Q6XKD3; assay: In vitro DP2/CRTH2 radioligand ([3H]PGD2) membrane binding assay; conditions: average; without serum albumin; read-out: IC50, inhibition of radiolabeled PGD2 binding to rat DP2
Sequence (Q6XKD3 whole entry): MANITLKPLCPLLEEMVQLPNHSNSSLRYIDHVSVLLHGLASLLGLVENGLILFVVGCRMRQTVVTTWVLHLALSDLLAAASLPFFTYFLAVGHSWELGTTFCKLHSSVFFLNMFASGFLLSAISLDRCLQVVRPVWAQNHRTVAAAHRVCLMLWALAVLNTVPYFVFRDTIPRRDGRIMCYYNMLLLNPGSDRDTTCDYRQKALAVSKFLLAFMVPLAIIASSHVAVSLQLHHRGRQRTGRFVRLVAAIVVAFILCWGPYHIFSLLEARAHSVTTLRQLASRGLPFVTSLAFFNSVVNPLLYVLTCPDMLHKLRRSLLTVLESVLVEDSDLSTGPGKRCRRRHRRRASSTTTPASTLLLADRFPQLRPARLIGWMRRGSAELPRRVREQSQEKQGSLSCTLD
testReadout: IC50 (nM)
Give the quantity in nM, number only.

Ask: IC50 lookup needed for COc1ccc(CC(=O)O)cc1Oc1ccc(NC(=O)C(C)(C)C)cc1CSC(C)(C)C , thanks.
Reply: 7

###

Experiment: Phase I single ascending dose study in humans, pharmacokinetics
Type: in vivo, human
Details: human, plasma; single oral 500 mg capsule, healthy humans, mean
Text: Example 22: Phase I Study in Humans This is a phase 1, Single-Center, Double-Blind Study of Compound 2 in healthy volunteers. To assess: (1) the safety and tolerability of single and multiple doses of Compound 2 following oral administration; and (2) the pharmacokinetics (PK) of Compound 2 after single and multiple doses; and (3) the effects of the pharmacodynamic (PD) responses in healthy subjects to Compound 2 as measured by a PGD2-induced eosinophil shape change assay (ESC). […]
Counter-ions that a name gives are not always drawn.
testReadout: AUC(0-t) (ng·h/mL)
Give the quantity in ng·h/mL, number only.

Ask: AUC(0-t) lookup needed for COc1ccc(CC(=O)O)cc1Oc1ccc(NC(=O)C(C)(C)C)cc1CSC(C)(C)C [Compound 2, sodium salt] , thanks.
Reply: 26000

###

Experiment: Regional dosing study in rat (pharmacokinetics)
Format: in vivo
Conditions: male, Sprague-Dawley, in vivo, 10 mg/kg, ileum
From the text: Example 11: Regional Dosing Study Male Sprague-Dawley rats (weighing from about 200 to about 300 grams) in the fasted state received a single injection of a solution of Compound 2 (5% methocel) in the duodenum, jejunum or ileum. This was compared with PO administration of the same formulation of Compound 2. […]
Where a name gives a salt, the structure may show the parent alone.
testReadout: half-life (h)
Give the quantity in h, number only.

Ask: half-life lookup needed for COc1ccc(CC(=O)O)cc1Oc1ccc(NC(=O)C(C)(C)C)cc1CSC(C)(C)C [Compound 2, sodium salt] , thanks.
Reply: 5.06

###

assay: Phase I single ascending dose study in humans, pharmacokinetics; format: in vivo, human; conditions: human, plasma; single oral 300 mg capsule, healthy humans, mean
Counter-ions that a name gives are not always drawn.
testReadout: Cmax (ng/mL)
Give the quantity in ng/mL, number only.

Ask: Cmax lookup needed for COc1ccc(CC(=O)O)cc1Oc1ccc(NC(=O)C(C)(C)C)cc1CSC(C)(C)C [Compound 2, sodium salt] , thanks.
Reply: 6690

###

Experiment: Phase I single ascending dose study in humans, pharmacokinetics
Assay type: in vivo, human
Settings: human, plasma; single oral 500 mg capsule, healthy humans, mean; read-out: Vz/F
Source text: Example 22: Phase I Study in Humans This is a phase 1, Single-Center, Double-Blind Study of Compound 2 in healthy volunteers. To assess: (1) the safety and tolerability of single and multiple doses of Compound 2 following oral administration; and (2) the pharmacokinetics (PK) of Compound 2 after single and multiple doses; and (3) the effects of the pharmacodynamic (PD) responses in healthy subjects to Compound 2 as measured by a PGD2-induced eosinophil shape change assay (ESC). […]
Where a name gives a salt, the structure may show the parent alone.
testReadout: Vd/F (L)
Give the quantity in L, number only.

Ask: Vd/F lookup needed for COc1ccc(CC(=O)O)cc1Oc1ccc(NC(=O)C(C)(C)C)cc1CSC(C)(C)C [Compound 2, sodium salt] , thanks.
Reply: 501

###

assay: Regional dosing study in rat (pharmacokinetics); format: in vivo; settings: male, Sprague-Dawley, in vivo, 10 mg/kg, duodenum
Structures can show the parent of a compound that is named as a salt.
testReadout: half-life

Ask: half-life lookup needed for COc1ccc(CC(=O)O)cc1Oc1ccc(NC(=O)C(C)(C)C)cc1CSC(C)(C)C [Compound 2, sodium salt] , thanks.
Reply: 4.12 h

###

assay: Regional dosing study in rat (pharmacokinetics); type: in vivo; details: male, Sprague-Dawley, in vivo, po, 10 mg/kg
Structures can show the parent of a compound that is named as a salt.
testReadout: Tmax

Ask: Tmax lookup needed for COc1ccc(CC(=O)O)cc1Oc1ccc(NC(=O)C(C)(C)C)cc1CSC(C)(C)C [Compound 2, sodium salt] , thanks.
Reply: 45 min

###

experiment: Phase I single ascending dose study in humans, pharmacokinetics; assay type: in vivo, human; conditions: human, plasma; single oral 150 mg capsule, healthy humans, mean
Counter-ions that a name gives are not always drawn.
testReadout: AUC(0-inf) (ng·h/mL)
Give the quantity in ng·h/mL, number only.

Ask: AUC(0-inf) lookup needed for COc1ccc(CC(=O)O)cc1Oc1ccc(NC(=O)C(C)(C)C)cc1CSC(C)(C)C [Compound 2, sodium salt] , thanks.
Reply: 3460

###

assay: Phase I single ascending dose study in humans, pharmacokinetics; assay type: in vivo, human; settings: human, plasma; single oral 150 mg capsule, healthy humans, mean
Structures can show the parent of a compound that is named as a salt.
testReadout: Tmax (min)
Give the quantity in min, number only.

Ask: Tmax lookup needed for COc1ccc(CC(=O)O)cc1Oc1ccc(NC(=O)C(C)(C)C)cc1CSC(C)(C)C [Compound 2, sodium salt] , thanks.
Reply: 32.5

###

Target: recombinant human CRTH2 receptor (Homo sapiens (Human))
Sequence (Q9Y5Y4 whole entry): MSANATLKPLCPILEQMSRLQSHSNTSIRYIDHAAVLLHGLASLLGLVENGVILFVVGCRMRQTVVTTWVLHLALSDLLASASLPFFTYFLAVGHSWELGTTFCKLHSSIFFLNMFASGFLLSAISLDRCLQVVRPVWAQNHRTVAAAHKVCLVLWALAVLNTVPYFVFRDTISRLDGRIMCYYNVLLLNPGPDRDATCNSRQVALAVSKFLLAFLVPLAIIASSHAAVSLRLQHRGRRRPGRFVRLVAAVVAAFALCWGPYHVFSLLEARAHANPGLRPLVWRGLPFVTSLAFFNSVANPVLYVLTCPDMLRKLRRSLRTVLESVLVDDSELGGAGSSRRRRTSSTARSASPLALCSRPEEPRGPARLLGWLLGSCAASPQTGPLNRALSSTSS
Assay: In vitro membrane GTPγS binding assay
Conditions: average; 80 nM PGD2, 0.2% human serum albumin
Procedure: Example 16: In Vitro GTPγS Binding Assay The ability of Compound 1 to inhibit binding of GTP to DP2 is assessed via a membrane GTPγS assay. […] Scintillant is then added to the plates and the radioactivity retained on the filters is determined on a Packard TopCount (Perkin Elmer). Specific binding is determined as total radioactive binding minus non-specific binding in the […] of the ligand (80 nM PGD2). IC50s were determined using Graphpad prism analysis of drug titration curves.
testReadout: pIC50
Lab note — pIC50 values are minus log10 of concentrations in M.

Ask: pIC50 lookup needed for COc1ccc(CC(=O)O)cc1Oc1ccc(NC(=O)C(C)(C)C)cc1CSC(C)(C)C [Compound 1] , thanks.
Reply: 8.55

###

assay: Capsule formulation pharmacokinetics in male Beagle dogs; assay type: in vivo; conditions: male, Beagle, in vivo; dog, fasted, IV saline, 2 mg/kg
Structures can show the parent of a compound that is named as a salt.
testReadout: Tmax (min)
Give the quantity in min, number only.

Ask: Tmax lookup needed for COc1ccc(CC(=O)O)cc1Oc1ccc(NC(=O)C(C)(C)C)cc1CSC(C)(C)C [Compound 2, sodium salt] , thanks.
Reply: 6

###

test: Phase I single ascending dose study in humans, pharmacokinetics; type: in vivo, human; conditions: human, plasma; single oral 50 mg capsule, healthy humans, mean; read-out: Vz/F
Counter-ions that a name gives are not always drawn.
testReadout: Vd/F (L)
Give the quantity in L, number only.

Ask: Vd/F lookup needed for COc1ccc(CC(=O)O)cc1Oc1ccc(NC(=O)C(C)(C)C)cc1CSC(C)(C)C [Compound 2, sodium salt] , thanks.
Reply: 1500

###

test: Plasma exposure in satellite group of mouse allergic rhinitis model; assay type: in vivo; conditions: Compound 2 10 mg/kg PO, 2 hr post-dose, read-out: plasma exposure for Compound 1
testReadout: concentration at 2 h (nM)
Give the quantity in nM, number only.

Ask: concentration at 2 h lookup needed for COc1ccc(CC(=O)O)cc1Oc1ccc(NC(=O)C(C)(C)C)cc1CSC(C)(C)C [Compound 1] , thanks.
Reply: 460

###

Experiment: Regional dosing study in rat (pharmacokinetics)
Assay type: in vivo
Details: male, Sprague-Dawley, in vivo, 10 mg/kg, jejunum
From the text: Example 11: Regional Dosing Study Male Sprague-Dawley rats (weighing from about 200 to about 300 grams) in the fasted state received a single injection of a solution of Compound 2 (5% methocel) in the duodenum, jejunum or ileum. This was compared with PO administration of the same formulation of Compound 2. […]
Structures can show the parent of a compound that is named as a salt.
testReadout: Cmax
Answer format reminder: number followed by unit.

Ask: Cmax lookup needed for COc1ccc(CC(=O)O)cc1Oc1ccc(NC(=O)C(C)(C)C)cc1CSC(C)(C)C [Compound 2, sodium salt] , thanks.
Reply: 12700 ng/mL

Where do these numbers come from? They come from patent US9688624B2.
